test system: Myc; test: Myc inhibition assay: Myc expression per cell by anti-Myc immunofluorescence, high-content imaging; format: cell-based, human (patient-derived medulloblastoma xenograft cells); settings: Table 1; medulloblastoma PDX cells, 4 h; read-out: IC50 (Myc inhibition)
endpoint: IC50

Take a look at these entries with their results.
COc1cc(-c2ccnc(Nc3cncc(F)c3)n2)ccn1 ... 1000 to 10000 nM
CC(C)Nc1nccc(-c2ccc3[nH]cnc3c2)n1 ... 1000 to 10000 nM
COc1cc(-c2ccnc(Nc3ccccc3)n2)ccn1 ... 10000 to 100000 nM

Fill in the recorded IC50 for this molecule, with Myc as test system: `c1cc(Nc2nccc(-c3ccc4[nH]cnc4c3)n2)cc(N2CCCCC2)c1`
200 to 1000 nM

Identify the measured IC50 of `CCCc1cccc(Nc2nccc(-c3cnc4nc[nH]c4c3)n2)c1` for Myc.
< 200 nM

What value of IC50 on Myc does `CC(C)S(=O)(=O)c1cccc(Nc2nccc(-c3ccc4[nH]cnc4c3)n2)c1` have?
< 200 nM
